This collection of values is drawn from patent US11919901B2.

Tested on: MV4-11 cells
Assay: Cell proliferation assay MV4;11 (CellTiter-Glo, 72 hours)
Assay type: cell-based
Details: Homo sapiens; MV4;11 leukemia cell line, 72 hours; read-out: MV4; 11 IC50
property.label: IC50

The cases that follow already have their IC50 on record.
compound_smiles=C[C@@H]1COC[C@@H](C)N1C(=O)c1cc(F)ccc1Oc1cncnc1N1CC2(CCN(C[C@@H]3CC[C@@H](NS(=O)(=O)C4COC4)CO3)CC2)C1 reported_result="0.1 to 1 µM"
compound_smiles=CC(C)N(CC(F)F)C(=O)c1cc(F)ccc1Oc1cncnc1N1CC2(CCN(C[C@@H]3CC[C@@H](NS(N)(=O)=O)CO3)CC2)C1 reported_result="< 0.1 µM"

# return IC50 for each item in the list
1. C[C@@H]1COC[C@H](C)N1C(=O)c1cc(F)ccc1Oc1cncnc1N1CC2(CCN(C[C@@H]3CC[C@@H](NS(=O)(=O)NCC(F)(F)F)CO3)CC2)C1
2. CC(C)N(C(=O)c1cc(F)ccc1Oc1cncnc1N1CC2(CCN(C[C@@H]3CC[C@@H](NS(=O)(=O)N4CCCC4)CO3)CC2)C1)[C@H]1CCOC1
3. CCN(CC)S(=O)(=O)N[C@@H]1CC[C@@H](CN2CCC3(CC2)CN(c2ncncc2Oc2ccc(F)cc2C(=O)N(C(C)C)[C@@H]2CCOC2)C3)OC1
4. CCN(C(=O)c1cc(F)ccc1Oc1cncnc1N1CC2(CCN(C[C@@H]3CC[C@@H](NS(=O)(=O)c4ccc(Cl)cc4)CO3)CC2)C1)C(C)C

1. < 0.1 µM
2. < 0.1 µM
3. < 0.1 µM
4. < 0.1 µM

* * *

Kindly supply the reported pKi values for the records listed here.
Molecular target: Menin-MLL (Homo sapiens (Human), UniProt O00255)
Sequence (O00255 whole entry): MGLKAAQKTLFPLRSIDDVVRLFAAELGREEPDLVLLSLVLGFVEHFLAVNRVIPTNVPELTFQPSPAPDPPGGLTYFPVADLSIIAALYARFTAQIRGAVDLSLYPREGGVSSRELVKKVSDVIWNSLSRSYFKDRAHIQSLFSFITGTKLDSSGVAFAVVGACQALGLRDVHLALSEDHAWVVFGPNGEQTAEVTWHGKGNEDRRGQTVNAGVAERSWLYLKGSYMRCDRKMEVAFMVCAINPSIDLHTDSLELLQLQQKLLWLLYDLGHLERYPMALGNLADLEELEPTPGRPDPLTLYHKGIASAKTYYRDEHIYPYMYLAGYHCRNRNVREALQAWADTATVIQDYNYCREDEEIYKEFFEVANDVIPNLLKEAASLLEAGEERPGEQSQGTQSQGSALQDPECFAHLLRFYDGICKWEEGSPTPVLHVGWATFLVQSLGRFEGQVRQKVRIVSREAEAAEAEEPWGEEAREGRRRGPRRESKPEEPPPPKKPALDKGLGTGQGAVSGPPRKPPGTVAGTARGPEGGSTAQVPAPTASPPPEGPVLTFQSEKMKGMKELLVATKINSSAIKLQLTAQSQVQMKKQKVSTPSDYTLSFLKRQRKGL
Assay: Determination of binding constants (Ki) to Menin-MLL (HTRF)
Conditions: HTRF; 0.25 nM H-FL-Menin, 3.2 nM FITC-MLL-4-43, 24 hr incubation; read-out: Menin-MLL Ki HTRF Assay: Ki
pKi: −log10 of the molar value.

The cases that follow already have their pKi on record.
compound=CCNS(=O)(=O)N[C@@H]1CC[C@@H](CN2CCC3(CC2)CN(c2ncncc2Oc2ccc(F)cc2C(=O)N(CC(F)F)C(C)C)C3)OC1 property_label=pKi reported_result="> 9.00"
compound=CCN(C(=O)c1cc(F)ccc1Oc1cncnc1N1CC2(CCN(C[C@@H]3CC[C@@H](NS(=O)(=O)c4c[nH]c(=O)c(C)c4)CO3)CC2)C1)C(C)C property_label=pKi reported_result="> 9.00"
compound=CC(C)N(C(=O)c1cc(F)ccc1Oc1cncnc1N1CC2(CCN(C[C@@H]3CC[C@@H](NS(=O)(=O)C(C)C)CO3)CC2)C1)[C@H]1CCOC1 property_label=pKi reported_result="> 9.00"
compound=CC(C)N(CC(F)F)C(=O)c1cc(F)ccc1Oc1nncnc1N1CC2(CCN(C[C@@H]3CC[C@@H](NS(=O)(=O)N4CCC4)CO3)CC2)C1 property_label=pKi reported_result="> 9.00"

# return pKi for each item in the list
1. CC(C)N(C(=O)c1cc(F)ccc1Oc1cncnc1N1CC2(CCN(C[C@@H]3CC[C@@H](NS(=N)(=O)C4CC4)CO3)CC2)C1)C(C)C (stereo partly drawn)
2. CCN(C(=O)c1cc(F)ccc1Oc1cncnc1N1CC2(CCN(C[C@@H]3CC[C@@H](NS(=O)(=O)C4COC4)CO3)CC2)C1)C(C)C

1. > 9.00
2. > 9.00

# return pKi for each item in the list
1. CC(C)N(CC#N)C(=O)c1cc(F)ccc1Oc1cncnc1N1CC2(CCN(C[C@@H]3CC[C@@H](NS(=O)(=O)N(C)C)CO3)CC2)C1
2. CCS(=O)(=O)N[C@@H]1CC[C@@H](CN2CCC3(CC2)CN(c2ncncc2Oc2ccc(F)cc2C(=O)N(C(C)C)[C@@H]2CCOC2)C3)OC1
3. C[C@@H]1COC[C@@H](C)N1C(=O)c1cc(F)ccc1Oc1cncnc1N1CC2(CCN(C[C@@H]3CC[C@@H](NS(=O)(=O)NC4CC4)CO3)CC2)C1
4. CCS(=O)(=O)N[C@@H]1CC[C@@H](CN2CCC3(CC2)CN(c2ncncc2Oc2ccc(F)cc2C(=O)N(C(C)C)[C@H]2C[C@H](O)C2)C3)OC1
5. CC(C)N(C(=O)c1cc(F)ccc1Oc1nncnc1N1CC2(CCN(C[C@@H]3CC[C@@H](NS(=O)(=O)C4CC4)CO3)CC2)C1)C(C)C
6. CCN(C(=O)c1cc(F)ccc1Oc1cncnc1N1CC2(CCN(C[C@@H]3CC[C@@H](NC(=O)NCC4CC4)CO3)CC2)C1)C(C)C

1: > 9.00; 2: > 9.00; 3: > 9.00; 4: > 9.00; 5: > 9.00; 6: 8.82 to 9.00

* * *

Molecular target: hERG (Homo sapiens (Human), UniProt Q12809)
Sequence (Q12809 whole entry): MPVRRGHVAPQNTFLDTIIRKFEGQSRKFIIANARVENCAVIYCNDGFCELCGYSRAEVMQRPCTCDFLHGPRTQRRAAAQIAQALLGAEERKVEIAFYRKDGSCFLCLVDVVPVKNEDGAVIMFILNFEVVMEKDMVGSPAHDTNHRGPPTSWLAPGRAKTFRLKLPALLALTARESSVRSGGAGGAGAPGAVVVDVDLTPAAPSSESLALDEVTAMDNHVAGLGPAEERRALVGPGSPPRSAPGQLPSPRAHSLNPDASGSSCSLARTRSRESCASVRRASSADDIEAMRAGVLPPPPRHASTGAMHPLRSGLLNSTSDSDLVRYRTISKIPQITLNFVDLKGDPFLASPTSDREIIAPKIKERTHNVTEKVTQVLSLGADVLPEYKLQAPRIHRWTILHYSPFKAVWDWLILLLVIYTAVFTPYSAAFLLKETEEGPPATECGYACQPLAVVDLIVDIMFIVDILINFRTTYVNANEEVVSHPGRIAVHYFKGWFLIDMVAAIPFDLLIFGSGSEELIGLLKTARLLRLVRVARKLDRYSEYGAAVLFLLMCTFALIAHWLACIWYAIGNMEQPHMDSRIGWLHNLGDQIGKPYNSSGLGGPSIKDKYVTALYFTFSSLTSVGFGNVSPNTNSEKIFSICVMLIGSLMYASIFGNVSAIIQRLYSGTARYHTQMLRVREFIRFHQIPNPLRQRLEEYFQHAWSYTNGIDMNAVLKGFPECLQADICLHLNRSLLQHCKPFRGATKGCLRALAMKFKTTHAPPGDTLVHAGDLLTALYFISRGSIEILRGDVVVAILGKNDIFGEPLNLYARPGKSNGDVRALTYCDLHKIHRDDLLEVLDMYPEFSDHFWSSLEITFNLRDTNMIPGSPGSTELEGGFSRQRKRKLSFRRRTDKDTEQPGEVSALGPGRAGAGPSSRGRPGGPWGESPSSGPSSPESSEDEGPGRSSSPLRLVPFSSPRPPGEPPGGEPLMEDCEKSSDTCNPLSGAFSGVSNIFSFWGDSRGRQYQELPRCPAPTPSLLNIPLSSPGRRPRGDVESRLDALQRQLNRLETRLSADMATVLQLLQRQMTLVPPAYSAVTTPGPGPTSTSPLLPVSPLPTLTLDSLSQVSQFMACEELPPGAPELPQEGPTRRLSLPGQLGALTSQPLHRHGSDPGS
Test: Patch clamp assay (hERG tail currents, whole-cell)
Assay type: cell-based
Settings: 10 μM compound, hERG transfected HEK 293 cells
property.label: hERG % Remaining 10 μM

The cases that follow already have their hERG % Remaining 10 μM on record.
compound_smiles=CC(C)N(C(=O)c1cc(F)ccc1Oc1cncnc1N1CC2(CCN(C[C@@H]3CC[C@@H](NS(=O)(=O)C4CC4)CO3)CC2)C1)[C@H]1CCOC1 property_label="hERG % Remaining 10 μM" reported_result="+++ (“+++” means ≥66%)"
compound_smiles=CCN(CC)S(=O)(=O)N[C@@H]1CC[C@@H](CN2CCC3(CC2)CN(c2ncncc2Oc2ccc(F)cc2C(=O)N(C(C)C)C2CC(F)(F)C2)C3)OC1 property_label="hERG % Remaining 10 μM" reported_result="+ (“+” means <33%)"
compound_smiles=CCN(C(=O)c1cc(F)ccc1Oc1cncnc1N1CC2(CCN(C[C@@H]3CC[C@@H](NS(=O)(=O)N4CCC4)CO3)CC2)C1)C(C)C property_label="hERG % Remaining 10 μM" reported_result="+++ (“+++” means ≥66%)"
compound_smiles=CCN(C(=O)c1cc(F)ccc1Oc1cncnc1N1CC2(CCN(C[C@@H]3CC[C@@H](NS(=O)(=O)c4cnn(C)c4)CO3)CC2)C1)C(C)C property_label="hERG % Remaining 10 μM" reported_result="+++ (“+++” means ≥66%)"
compound_smiles=CCS(=O)(=O)N[C@@H]1CC[C@@H](CN2CCC3(CC2)CN(c2ncncc2Oc2ccc(F)cc2C(=O)N(CC(F)F)C(C)C)C3)OC1 property_label="hERG % Remaining 10 μM" reported_result="+++ (“+++” means ≥66%)"
compound_smiles=CCN(C(=O)c1cc(F)ccc1Oc1cncnc1N1CC2(CCN(C[C@@H]3CC[C@@H](NS(=O)(=O)c4csc(C)n4)CO3)CC2)C1)C(C)C property_label="hERG % Remaining 10 μM" reported_result="+++ (“+++” means ≥66%)"
compound_smiles=CNS(=O)(=O)N[C@@H]1CC[C@@H](CN2CCC3(CC2)CN(c2ncncc2Oc2ccc(F)cc2C(=O)N(C(C)C)C2CC(F)(F)C2)C3)OC1 property_label="hERG % Remaining 10 μM" reported_result="+++ (“+++” means ≥66%)"
compound_smiles=CCN(C(=O)c1cc(F)ccc1Oc1cncnc1N1CC2(CCN(C[C@@H]3CC[C@@H](NS(=O)(=O)c4ccccn4)CO3)CC2)C1)C(C)C property_label="hERG % Remaining 10 μM" reported_result="+++ (“+++” means ≥66%)"
compound_smiles=CCS(=O)(=O)N[C@@H]1CC[C@@H](CN2CCC3(CC2)CN(c2ncncc2Oc2ccc(F)cc2C(=O)N(C(C)C)C(C)C)C3)OC1 property_label="hERG % Remaining 10 μM" reported_result="+++ (“+++” means ≥66%)"
compound_smiles=CCS(=O)(=O)N[C@@H]1CC[C@@H](CN2CCC3(CC2)CN(c2ncncc2Oc2ccc(F)cc2C(=O)N(CCC#N)C(C)C)C3)OC1 property_label="hERG % Remaining 10 μM" reported_result="+++ (“+++” means ≥66%)"

# return hERG % Remaining 10 μM for each item in the list
1. CCN(C(=O)c1cc(F)ccc1Oc1cncnc1N1CC2(CCN(C[C@@H]3CC[C@@H](NS(C)(=O)=O)CO3)CC2)C1)C(C)C
2. CC(C)N(C(=O)c1cc(F)ccc1Oc1cncnc1N1CC2(CCN(C[C@@H]3CC[C@@H](NS(N)(=O)=O)CO3)CC2)C1)C(C)C

1. +++ (“+++” means ≥66%)
2. +++ (“+++” means ≥66%)

# return hERG % Remaining 10 μM for each item in the list
1. CCN(C(=O)c1cc(F)ccc1Oc1cncnc1N1CC2(CCN(C[C@@H]3CC[C@@H](NS(=O)(=O)c4cccc(OC)c4)CO3)CC2)C1)C(C)C
2. CC(C)N(CC(F)F)C(=O)c1cc(F)ccc1Oc1cncnc1N1CC2(CCN(C[C@@H]3CC[C@@H](NS(=O)(=O)C4CC4)CO3)CC2)C1
3. CC(C)N(C(=O)c1cc(F)ccc1Oc1cncnc1N1CC2(CCN(C[C@@H]3CC[C@@H](NS(=O)(=O)C4CC4)CO3)CC2)C1)[C@@H]1CCOC1
4. CCN(C(=O)c1cc(F)ccc1Oc1cncnc1N1CC2(CCN(C[C@@H]3CC[C@@H](NC(=O)OC(C)(C)C)CO3)CC2)C1)C(C)C

1. + (“+” means <33%)
2. +++ (“+++” means ≥66%)
3. +++ (“+++” means ≥66%)
4. + (“+” means <33%)

# return hERG % Remaining 10 μM for each item in the list
1. CC(C)N(C(=O)c1cc(F)ccc1Oc1cncnc1N1CC2(CCN(C[C@@H]3CC[C@@H](NS(=O)(=O)c4cnn(C)c4)CO3)CC2)C1)C(C)C
2. CC(C)N(CC(F)F)C(=O)c1cc(F)ccc1Oc1cncnc1N1CC2(CCN(C[C@@H]3CC[C@@H](NS(=O)(=O)N4CCC4)CO3)CC2)C1
3. CCN(C(=O)c1cc(F)ccc1Oc1cncnc1N1CC2(CCN(C[C@@H]3CC[C@@H](NS(=O)(=O)c4ccc(OC)cc4)CO3)CC2)C1)C(C)C

["+++ (“+++” means ≥66%)", "+++ (“+++” means ≥66%)", "+ (“+” means <33%)"]
